Inhibition rate overview
test system: galactose oxidase; type: biochemical, Gibberella fujikuroi Y-530929; conditions: 25° C., pH 7.0
measured.attribute: Inhibition rate (%)

compound: O=[N+]([O-])[O-].[Ag+]
value.reported: 100
//
compound: [N-]=[N+]=[N-].[Na+]
value.reported: 94
//
compound: NO
value.reported: 100
//
compound: O=C(O)c1cc[c]([Hg][Cl])cc1 [PCMB, parachloromercurybenzoate]
value.reported: 57
